tested on: Saccharomyces cerevisiae BY4741 SeMeCo community; test: z-score of subpopulation abundance vs DMSO median, subpopulation auxotrophic for HLU; higher = larger share of this subpopulation than in DMSO controls; conditions: 10 µM; 24 h; SM minimal medium; subpopulation (auxotrophy): HLU
Counter-ions that a name gives are not always drawn.
OUTCOME MEASURE: z-score of subpopulation abundance
Could you keep your reply to the number by itself?

C[C@]12CC[C@@H]3c4ccc(O)cc4CC[C@H]3[C@@H]1CCC2=O    -0.08
CC1(C)S[C@@H]2[C@H](NC(=O)Cc3ccccc3)C(=O)N2[C@H]1C(=O)O [Benzathine penicilline]    -0.11
C#C[C@]1(O)CC[C@H]2[C@@H]3CCC4=CC(=O)CC[C@@H]4[C@H]3C(=C)C[C@@]21CC    0.5
O=C(O)c1cc(-c2ccc(F)cc2F)ccc1O    -0.75
CCCCCCCCN=c1ccn(CCCCCCCCCCn2ccc(=NCCCCCCCC)cc2)cc1 [Octenidine Dihydrochloride]    5.94

What reported z-score of subpopulation abundance corresponds to O=c1[nH]c(=O)n([C@H]2C[C@H](O)[C@@H](CO)O2)cc1/C=C/Br on Saccharomyces cerevisiae BY4741 SeMeCo community? -0.95

What reported z-score of subpopulation abundance corresponds to C[C@H]1c2cccc(O)c2C(O)=C2C(=O)[C@]3(O)C(O)=C(C(N)=O)C(=O)[C@@H](N(C)C)[C@@H]3[C@@H](O)[C@@H]21 on Saccharomyces cerevisiae BY4741 SeMeCo community? -0.24

What reported z-score of subpopulation abundance corresponds to CCCCOc1ccc(CC(=O)NO)cc1 on Saccharomyces cerevisiae BY4741 SeMeCo community? -0.71

What reported z-score of subpopulation abundance corresponds to C[C@@H]1CC(=O)NN=C1c1ccc(NN=C(C#N)C#N)cc1 on Saccharomyces cerevisiae BY4741 SeMeCo community? -0.67

What reported z-score of subpopulation abundance corresponds to Cc1nc2n(c(=O)c1CCN1CCC(c3noc4cc(F)ccc34)CC1)CCCC2O (configuration not stated) on Saccharomyces cerevisiae BY4741 SeMeCo community? -0.96

What reported z-score of subpopulation abundance corresponds to CC(=O)N1CCN(c2ccc(OCC3COC(Cn4ccnc4)(c4ccc(Cl)cc4Cl)O3)cc2)CC1 (configuration not stated) on Saccharomyces cerevisiae BY4741 SeMeCo community? -0.27

What reported z-score of subpopulation abundance corresponds to CN(C)CCC=C1c2ccccc2C(C)(C)c2ccccc21 [Melitracen hydrochloride] on Saccharomyces cerevisiae BY4741 SeMeCo community? -1.72

----------
test system: Saccharomyces cerevisiae BY4741 SeMeCo community; test: z-score of subpopulation abundance vs DMSO median, subpopulation auxotrophic for LU; higher = larger share of this subpopulation than in DMSO controls; settings: 10 µM; 24 h; SM minimal medium; subpopulation (auxotrophy): LU
Kindly return label 1 if reported z-score of subpopulation abundance is no lower than -0.1; return label 0 if it is lower.

CC(=O)N[C@H]1[C@H]([C@H](O)[C@H](O)CO)OC(C(=O)O)=C[C@@H]1NC(=N)N    label 0

Given CCCCCc1ccc(C)cc1O , state whether its z-score of subpopulation abundance is at least -0.1. label 1

Given CN1CCN(c2c(F)cc3c(=O)c(C(=O)O)cn4c3c2OCN4C)CC1 , state whether its z-score of subpopulation abundance is at least -0.1. label 1

Given Cc1cc(O)cc(C)c1Cl , state whether its z-score of subpopulation abundance is at least -0.1. label 1

Given CO[C@H]1O[C@@H]2O[C@@]3(C)CC[C@H]4[C@H](C)CC[C@@H]([C@H]1C)[C@@]24OO3 , state whether its z-score of subpopulation abundance is at least -0.1. label 0

Given O=C(O)c1ccccc1O , state whether its z-score of subpopulation abundance is at least -0.1. label 0

Given CCC(=O)O[C@@H]1CC(=O)O[C@H](C)C/C=C/C=C/[C@H](O)[C@H](C)C[C@H](CC=O)[C@H](O[C@@H]2O[C@H](C)[C@@H](O[C@H]3C[C@@](C)(O)[C@@H](OC(=O)CC)[C@H](C)O3)[C@H](N(C)C)[C@H]2O)[C@H]1OC , state whether its z-score of subpopulation abundance is at least -0.1. label 0

Given CC(=O)C1C(=O)C=C(C)OC1=O (stereo not given) [Sodium dehydroacetate] , state whether its z-score of subpopulation abundance is at least -0.1. label 1

Values compiled from the supplement of paper PMC8975748.
